Provide the reported Toxicity determination Apis cernan Mortality (%) of each item.
- Tested on: Apis cernan
- Measurement notes: Toxicity test on adult worker bees of Apis cernan, small beaker method
- Format: in vivo
- Recorded conditions: 500 ppm, 48 hours
Answer format: number, then unit.

*Q* Return the recorded Toxicity determination Apis cernan Mortality (%) value; entry: CCc1nn2c(c1-c1cc(C)sc1C)NC(/C=C\C(=O)OC)(/C=C/C(=O)OC)c1cc(C(F)(F)F)cc(Cl)c1-2 (stereo not shown) [Compound C64]
*A* 9%

*Q* Return the recorded Toxicity determination Apis cernan Mortality (%) value; entry: COC(=O)CC1(C(=O)OC)Nc2c([S+]([O-])C(F)(F)F)c(C#N)nn2-c2c(Cl)cc(C(F)(F)F)cc21 (stereo not shown) [Compound C37]
*A* 8%

*Q* Return the recorded Toxicity determination Apis cernan Mortality (%) value; entry: CNC(=O)Nc1ccc2c(c1)-n1cc(C#N)c(C#N)c1NC2(C#N)C#N [Compound B12]
*A* 6%

*Q* Return the recorded Toxicity determination Apis cernan Mortality (%) value; entry: CNC(=O)C1(CC#N)Nc2c([S+](C)[O-])c(C(C)=O)nn2-c2c(Cl)cc(C(F)(F)F)cc21 (stereo not shown) [Compound C45]
*A* 3%

###

- Tested on: Bombyx mori L.
- Measurement notes: Toxicity test on 2nd-instar larvae of Bombyx mori L., leaf immersion feeding method
- Format: in vivo
- Recorded conditions: 1000 ppm, 24 hours
Provide the reported Toxicity determination Bombyx mori L. Mortality (%) of each item.

*Q* Return the recorded Toxicity determination Bombyx mori L. Mortality (%) value; entry: CC(=O)c1nn2c(c1[S+](C)[O-])NC(CC#N)(C(=O)O)c1cc(C(F)(F)F)cc(Cl)c1-2 (centres unmarked)
*A* 0%

*Q* Return the recorded Toxicity determination Bombyx mori L. Mortality (%) value; entry: C=CC1Nc2cc(C#N)nn2-c2c(Cl)cc(C(F)(F)F)cc21 (centres unmarked)
*A* 3%

*Q* Return the recorded Toxicity determination Bombyx mori L. Mortality (%) value; entry: N#Cc1cnn2c1NC(F)(CN)c1ccc(Cl)cc1-2 (centres unmarked)
*A* 0%

*Q* Return the recorded Toxicity determination Bombyx mori L. Mortality (%) value; entry: Nc1ccc2c(c1)-n1nc(C(F)(F)F)c(-c3ccc(F)cc3)c1NC2(C(F)(F)F)C(F)(F)F
*A* 13%

*Q* Return the recorded Toxicity determination Bombyx mori L. Mortality (%) value; entry: CS(=O)(=O)Nc1ccc2c(c1)-n1cc(C#N)c(C#N)c1NC2(C#N)C#N
*A* 3%

*Q* Return the recorded Toxicity determination Bombyx mori L. Mortality (%) value; entry: Cc1cc(-c2c(C#N)nn3c2NC(C(O)CO)c2cc(C(F)(F)F)cc(Cl)c2-3)c(C)o1 (centres unmarked)
*A* 10%

*Q* Return the recorded Toxicity determination Bombyx mori L. Mortality (%) value; entry: C=CC1(CC#N)Nc2c([S+]([O-])C(F)(F)F)c(C#N)nn2-c2c(Cl)cc(C(F)(F)F)cc21 (centres unmarked)
*A* 8%

*Q* Return the recorded Toxicity determination Bombyx mori L. Mortality (%) value; entry: COC(=O)CC1(C(=O)OC)Nc2c([S+]([O-])C(F)(F)F)c(C#N)nn2-c2c(Cl)cc(C(F)(F)F)cc21 (centres unmarked)
*A* 6%

###

- Test system: Solenopsis invicta
- Measurement notes: whole plant or invertebrate
- Format: in vivo
- Recorded conditions: 100 ppm; 24 h; water test tube poison-feeding
Provide the reported Solenopsis invicta Mortality (%) 100 ppm 24 h of each item.
API: value field is a number in %; no unit string.

*Q* Return the recorded Solenopsis invicta Mortality (%) 100 ppm 24 h value; entry: N#Cc1nn2c(c1[S+]([O-])C(F)(F)F)NC(Cl)c1cc(C(F)(F)F)cnc1-2 (stereo not shown)
*A* 10

*Q* Return the recorded Solenopsis invicta Mortality (%) 100 ppm 24 h value; entry: COC(=O)CC1(C(=O)OC)Nc2c([S+]([O-])C(F)(F)F)c(C#N)nn2-c2ncc(C(F)(F)F)cc21 (stereo not shown)
*A* 20

*Q* Return the recorded Solenopsis invicta Mortality (%) 100 ppm 24 h value; entry: COC(=O)CC1Nc2c([S+]([O-])C(F)(F)F)c(C(F)(F)F)nn2-c2ncc(C(F)(F)F)cc21 (stereo not shown)
*A* 34

*Q* Return the recorded Solenopsis invicta Mortality (%) 100 ppm 24 h value; entry: N#Cc1nn2c(c1[S+]([O-])C(F)(F)F)NC(C#N)(CC(=O)C(F)(F)F)c1cc(C(F)(F)F)cnc1-2 (stereo not shown)
*A* 24

*Q* Return the recorded Solenopsis invicta Mortality (%) 100 ppm 24 h value; entry: COC(=O)C1Nc2c([S+]([O-])C(F)(F)F)c(C#N)nn2-c2ncc(C(F)(F)F)cc21 (stereo not shown)
*A* 20

*Q* Return the recorded Solenopsis invicta Mortality (%) 100 ppm 24 h value; entry: N#Cc1nn2c(c1[S+]([O-])C(F)(F)F)NC(Cc1ccccc1)(C(=O)C(F)(F)F)c1cc(C(F)(F)F)cnc1-2 (stereo not shown)
*A* 25

*Q* Return the recorded Solenopsis invicta Mortality (%) 100 ppm 24 h value; entry: COC(=O)C1Nc2c([S+]([O-])C(F)(F)F)c(C(F)(F)F)nn2-c2ncc(C(F)(F)F)cc21 (stereo not shown)
*A* 20

*Q* Return the recorded Solenopsis invicta Mortality (%) 100 ppm 24 h value; entry: CC=CC1Nc2c([S+]([O-])C(F)(F)F)c(C(F)(F)F)nn2-c2ncc(C(F)(F)F)cc21 (stereo not shown)
*A* 20

*Q* Return the recorded Solenopsis invicta Mortality (%) 100 ppm 24 h value; entry: N#Cc1nn2c(c1[S+]([O-])C(F)(F)F)NC(CC(=O)C(F)(F)F)(C(F)(F)F)c1cc(C(F)(F)F)cnc1-2 (stereo not shown)
*A* 24

*Q* Return the recorded Solenopsis invicta Mortality (%) 100 ppm 24 h value; entry: N#Cc1nn2c(c1[S+]([O-])C(F)(F)F)NC(C#N)(C#N)c1cc(C(F)(F)F)cnc1-2 (stereo not shown)
*A* 20

*Q* Return the recorded Solenopsis invicta Mortality (%) 100 ppm 24 h value; entry: CC(=O)CC1(C(=O)C(F)(F)F)Nc2c([S+]([O-])C(F)(F)F)c(C#N)nn2-c2ncc(C(F)(F)F)cc21 (stereo not shown)
*A* 34

*Q* Return the recorded Solenopsis invicta Mortality (%) 100 ppm 24 h value; entry: CC(=O)C1(CC(=O)C(F)(F)F)Nc2c([S+]([O-])C(F)(F)F)c(C#N)nn2-c2ncc(C(F)(F)F)cc21 (stereo not shown)
*A* 15

*Q* Return the recorded Solenopsis invicta Mortality (%) 100 ppm 24 h value; entry: CCOC(=O)CC1(C(=O)OCC)Nc2c([S+]([O-])C(F)(F)F)c(C#N)nn2-c2ncc(C(F)(F)F)cc21 (stereo not shown)
*A* 30

*Q* Return the recorded Solenopsis invicta Mortality (%) 100 ppm 24 h value; entry: COC(=O)CC1Nc2c([S+]([O-])C(F)(F)F)c(C#N)nn2-c2ncc(C(F)(F)F)cc21 (stereo not shown)
*A* 26

*Q* Return the recorded Solenopsis invicta Mortality (%) 100 ppm 24 h value; entry: N#CC1Nc2c([S+]([O-])C(F)(F)F)c(C(F)(F)F)nn2-c2ncc(C(F)(F)F)cc21 (stereo not shown)
*A* 21

*Q* Return the recorded Solenopsis invicta Mortality (%) 100 ppm 24 h value; entry: C[S+]([O-])c1nn2c(c1C#N)NC(F)(C(F)(F)F)c1ccccc1-2 (stereo not shown)
*A* 45
